Provide the reported viability, T/C of each item.
System: KRAS patient-derived spheroids with HUVEC/MSC, viability;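 further: compound exposure lasted seven days before readout; 100% = DMSO vehicle control viability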
Assay: Anticancer human tumor 519858-162-T-J1-PDC patient-derived colon adenocarcinoma cell line growth inhibition [KRAS2]
Conditions: second compound 3.16 µM; first compound 10 µM; stronger effect = lower value
Source text: Multicellular complex tumor spheroid response to RAS pathway inhibitors in combination with a targeted agents in patient-derived cell lines with oncogenic KRAS variants from multiple cancer types A high-throughput screen of multi-cell type tumor spheroids was designed to identify active combinations of targeted small molecules and KRAS pathway inhibitors. […] Compounds. […] If the clinical Cmax for an agent had not been determined, the highest concentration tested was 10 microM. […]
Numbers only, in %.

Provide each entry's viability, T/C from the list below.
1. Cn1nccc1Nc1nccc(-c2cc3c(s2)C(C)(C)N(CCN2CCOCC2)C3=O)n1 + CC1OCC2(CCN(c3cnc(Sc4ccnc(N)c4Cl)c(N)n3)CC2)C1N
2. CC(C)NCC(C(=O)N1CCN(c2ncnc3c2C(C)CC3O)CC1)c1ccc(Cl)cc1 (stereo not given) + C=CC(=O)N1CCN(c2nc(=O)n(-c3c(C)ccnc3C(C)C)c3nc(-c4c(O)cccc4F)c(F)cc23)C(C)C1
3. COc1cc2nccc(Oc3ccc(NC(=O)C4(C(=O)Nc5ccc(F)cc5)CC4)cc3)c2cc1OC + C=CC(=O)N1CCN(c2nc(=O)n(-c3c(C)ccnc3C(C)C)c3nc(-c4c(O)cccc4F)c(F)cc23)C(C)C1

A:
28.1
87.5
109

Provide each entry's viability, T/C from the list below.
1. COc1cc(Nc2ncc3c(n2)-c2ccc(Cl)cc2C(c2c(F)cccc2OC)=NC3)ccc1C(=O)O + C=CC(=O)N1CCN(c2nc(=O)n(-c3c(C)ccnc3C(C)C)c3nc(-c4c(O)cccc4F)c(F)cc23)C(C)C1
2. COC(=O)c1ccc2c(C(=Nc3ccc(N(C)C(=O)CN4CCN(C)CC4)cc3)c3ccccc3)c(O)[nH]c2c1 + COc1cc2nc(C)nc(NC(C)c3cc(N)cc(C(F)(F)F)c3)c2cc1OC1CCOC1

A:
1: 91.1; 2: 88.1

Numbers sourced from PubChem BioAssay AID1963872.
